# Test target: Human IP6K1 (Homo sapiens)
# Construct: GST (N, cleaved yes); made in house; host or cells: C43 E. coli, pGEX-6P-2
# Sequence (Q92551 whole entry): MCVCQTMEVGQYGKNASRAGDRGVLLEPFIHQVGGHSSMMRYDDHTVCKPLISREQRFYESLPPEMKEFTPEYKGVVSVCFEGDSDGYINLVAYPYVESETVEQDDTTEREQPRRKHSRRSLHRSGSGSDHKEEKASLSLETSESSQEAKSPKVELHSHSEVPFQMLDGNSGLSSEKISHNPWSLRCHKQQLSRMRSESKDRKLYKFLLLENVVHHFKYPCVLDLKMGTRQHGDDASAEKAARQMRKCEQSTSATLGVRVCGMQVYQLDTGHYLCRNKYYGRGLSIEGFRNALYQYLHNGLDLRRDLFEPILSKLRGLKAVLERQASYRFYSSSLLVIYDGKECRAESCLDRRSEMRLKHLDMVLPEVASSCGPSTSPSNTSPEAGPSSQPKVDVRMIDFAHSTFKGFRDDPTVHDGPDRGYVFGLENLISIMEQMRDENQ
# Measurement protocol: IP6K1 high-throughput screen of the Sigma LOPAC (ADP-Glo Max, single point);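 further: final compound concentration 10µM in 5% DMSO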
# Format: biochemical
# Applied conditions: Sigma LOPAC single-point screen; Z-score from plate average and StDev
Where a name gives a salt, the structure may show the parent alone.
Result type: Z-score
Answer as a number with no unit attached.

Prompt line: Record Cc1nc2sccn2c(=O)c1CCN1CCC(=C(c2ccccc2)c2ccc(F)cc2)CC1 : what is its Z-score with Human IP6K1 (Homo sapiens)?
Response line: 0.8489

Prompt line: Record COC(=O)[C@H](NC(=O)c1cc(-c2ccccc2)nc2ccccc12)c1ccccc1 : what is its Z-score with Human IP6K1 (Homo sapiens)?
Response line: 0.5429

Prompt line: Record O=C[C@H](Cl)[C@@H](O)[C@H](O)[C@H](O)CO : what is its Z-score with Human IP6K1 (Homo sapiens)?
Response line: 0.5297

Prompt line: Record CC1(C(=O)O)C2CCC(O2)C1(C)C(=O)O (centres unmarked) : what is its Z-score with Human IP6K1 (Homo sapiens)?
Response line: 0.6809

Prompt line: Record C[C@H](N)CN1CCc2ccc(Br)cc21.C[C@H](N)CN1CCc2ccc(Br)cc21.O=C(O)/C=C/C(=O)O [VER-3323 hemifumarate salt] : what is its Z-score with Human IP6K1 (Homo sapiens)?
Response line: 0.8963

Prompt line: Record CNCCC(Oc1ccc(C(F)(F)F)cc1)c1ccccc1 (centres unmarked) [Fluoxetine hydrochloride] : what is its Z-score with Human IP6K1 (Homo sapiens)?
Response line: 0.9903

Prompt line: Record NS(=O)(=O)c1cc2c(cc1Cl)NC(C1CC3C=CC1C3)NS2(=O)=O (centres unmarked) [Cyclothiazide] : what is its Z-score with Human IP6K1 (Homo sapiens)?
Response line: 1.224

Prompt line: Record CCCn1c(=O)c2c(ncn2C)n(CCC)c1=O : what is its Z-score with Human IP6K1 (Homo sapiens)?
Response line: 0.6359

Prompt line: Record O=C1c2c(O)cc(O)cc2OC(c2ccc(O)c(O)c2)C1O (racemic) [(±)-Taxifolin] : what is its Z-score with Human IP6K1 (Homo sapiens)?
Response line: 1.0136

Prompt line: Record N[C@@H](Cc1ccc(N(CCCl)CCCl)cc1)C(=O)O : what is its Z-score with Human IP6K1 (Homo sapiens)?
Response line: 0.4336

Prompt line: Record Br.C=CCN1CCc2c(cc(O)c(O)c2Cl)C(c2ccccc2)C1 (racemic) [(±)-Chloro-APB hydrobromide] : what is its Z-score with Human IP6K1 (Homo sapiens)?
Response line: 0.6137

Prompt line: Record COc1cc2c(CCNC(C)=O)c[nH]c2cc1Cl : what is its Z-score with Human IP6K1 (Homo sapiens)?
Response line: 0.6784

Prompt line: Record C[N+](C)(C)CCOP(=O)([O-])OP(=O)([O-])OC[C@H]1O[C@@H](n2ccc(N)nc2=O)[C@H](O)[C@@H]1O.[Na+] [Citicoline sodium] : what is its Z-score with Human IP6K1 (Homo sapiens)?
Response line: 1.07

Prompt line: Record CC(COc1ccccc1)N(CCCl)Cc1ccccc1 (centres unmarked) [Phenoxybenzamine hydrochloride] : what is its Z-score with Human IP6K1 (Homo sapiens)?
Response line: 0.7056

Prompt line: Record Br.Br.NC(N)=NCCSSCCN=C(N)N [Guanidinoethyl disulfide dihydrobromide] : what is its Z-score with Human IP6K1 (Homo sapiens)?
Response line: 1.343

Prompt line: Record COC(=O)Nc1nc2ccc(C(=O)c3cccs3)cc2[nH]1 : what is its Z-score with Human IP6K1 (Homo sapiens)?
Response line: 0.7955

Prompt line: Record COc1ccc2c(c1)c(CC(=O)O)c(C)n2Cc1ccc(Cl)cc1 : what is its Z-score with Human IP6K1 (Homo sapiens)?
Response line: 1.208
